- system.tested: UniProt C0H4S5
- experiment: IC50 for competition of protein binding to Kinobeads
- condition.description: assay detail: Kinobeads competition in P. falciparum blood-stage lysate
pIC50: −log10 of the molar value.
readout.name: pIC50

The molecule O=c1[nH]c2ccc(Cl)cc2c(NC2CN3CCC2CC3)c1-c1nc2ccccc2[nH]1 (stereo unspecified) [CHIR-124] on UniProt C0H4S5: pIC50 was < 4.70

* * *

- system.tested: UniProt Q8IJ74
- experiment: IC50 for competition of protein binding to Kinobeads
- condition.description: assay detail: Kinobeads competition in P. falciparum blood-stage lysate
readout.name: IC50

Observed IC50 on UniProt Q8IJ74, entry O=c1[nH]c2ccc(Cl)cc2c(NC2CN3CCC2CC3)c1-c1nc2ccccc2[nH]1 (stereo unspecified) [CHIR-124] , equals > 20 µM

* * *

- system.tested: UniProt O77388
- experiment: IC50 for competition of protein binding to Kinobeads
- condition.description: assay detail: Kinobeads competition in P. falciparum blood-stage lysate
readout.name: IC50

compound O=c1[nH]c2ccc(Cl)cc2c(NC2CN3CCC2CC3)c1-c1nc2ccccc2[nH]1 (stereo unspecified) [CHIR-124] , IC50 observed: > 20 µM

* * *

- system.tested: UniProt Q8IDJ4
- experiment: IC50 for competition of protein binding to Kinobeads
- condition.description: assay detail: Kinobeads competition in P. falciparum blood-stage lysate
pIC50: −log10 of the molar value.
readout.name: pIC50

pIC50 in this record for O=c1[nH]c2ccc(Cl)cc2c(NC2CN3CCC2CC3)c1-c1nc2ccccc2[nH]1 (stereo unspecified) [CHIR-124] : < 4.70

* * *

- system.tested: UniProt O77330
- experiment: IC50 for competition of protein binding to Kinobeads
- condition.description: assay detail: Kinobeads competition in P. falciparum blood-stage lysate
readout.name: IC50

// sample O=c1[nH]c2ccc(Cl)cc2c(NC2CN3CCC2CC3)c1-c1nc2ccccc2[nH]1 (stereo unspecified) , its IC50 was > 20 µM

* * *

- system.tested: UniProt Q8IEL1
- experiment: apparent dissociation constant (Kd app) from Kinobeads competition
- condition.description: assay detail: Kinobeads competition in P. falciparum blood-stage lysate
readout.name: Kd (µM)
Express your answer in µM, writing the number without its unit.

Entry O=c1[nH]c2ccc(Cl)cc2c(NC2CN3CCC2CC3)c1-c1nc2ccccc2[nH]1 (stereo unspecified) : Kd on UniProt Q8IEL1 = 1.9

* * *

- system.tested: UniProt C6KSY0
- experiment: IC50 for competition of protein binding to Kinobeads
- condition.description: assay detail: Kinobeads competition in P. falciparum blood-stage lysate
readout.name: IC50

# compound O=c1[nH]c2ccc(Cl)cc2c(NC2CN3CCC2CC3)c1-c1nc2ccccc2[nH]1 (stereo unspecified) ; its IC50 = > 20 µM

* * *

- system.tested: UniProt Q8IJN3
- experiment: IC50 for competition of protein binding to Kinobeads
- condition.description: assay detail: Kinobeads competition in P. falciparum blood-stage lysate
pIC50: −log10 of the molar value.
readout.name: pIC50

Given the compound O=c1[nH]c2ccc(Cl)cc2c(NC2CN3CCC2CC3)c1-c1nc2ccccc2[nH]1 (stereo unspecified) and test system UniProt Q8IJN3, the measured pIC50 is < 4.70

* * *

- system.tested: UniProt O77375
- experiment: IC50 for competition of protein binding to Kinobeads
- condition.description: assay detail: Kinobeads competition in P. falciparum blood-stage lysate
pIC50: −log10 of the molar value.
readout.name: pIC50

Recorded pIC50 (compound O=c1[nH]c2ccc(Cl)cc2c(NC2CN3CCC2CC3)c1-c1nc2ccccc2[nH]1 (stereo unspecified) ): < 4.70
